Data credit: PubChem BioAssay (NCI)

tested on: HS 578T breast; test: NCI-60 one-dose screen, 48 h; conditions: 10 µM
This is part of a sample that, as a whole, favours compounds with a hit. Of some 83,000 tested, about 20% had one in any assay. Calls of active or inactive are those of the source. The calls were made as follows: active = growth percent below 10; inactive = the rest.
Give your call using only these classes: active, inactive

Field: example entries. Status: answers known.
                                   molecule     target_desc  assigned_label
0  COC(=O)/C=C/c1cc(OC(C)=O)c2c(c1)[C@@H](C(=O)OC)[C@H](c1ccc(OC(C)=O)c(OC(C)=O)c1)O2  HS 578T breast          active
1  Cc1ccc(N2C3c4ccccc4N(S(=O)(=O)c4ccc(C)cc4)C2c2ccccc2N3S(=O)(=O)c2ccc(C)cc2)cc1  HS 578T breast        inactive

Ask: Each molecule tested received a call. Report the one for Cc1cc(C)c2c(NC(=O)Nc3ccc(Cl)c(Cl)c3)n[nH]c2n1 .
Reply: inactive

Ask: Repeat for the following molecule: COc1ccc(/C=c2\c(=O)n(-c3ccccc3)c3nn4c(=O)c(=O)[nH]nc4n23)cc1
Reply: inactive

Ask: Could you do the same for Cc1nn(-c2ccc(Cl)cc2)c(=O)n1CCN1CCOCC1 , please?
Reply: inactive

Ask: And the next one, Nc1nc2c(c3ncccc13)C(c1ccccc1)Cc1ncccc1-2 (centres undefined) ?
Reply: inactive

Ask: Another molecule to check: COc1ccc(/C(=C\c2cc(OC)c(OC)c(OC)c2)C(=O)N2CCCNCC2)cc1
Reply: inactive

Ask: Param item: CC[C@H](Nc1nc(N)nc(N)c1Cl)c1nc2cccc(NCc3ccc(C(=O)NO)cc3)c2c(=O)n1-c1ccccc1
Reply: inactive

Ask: Next entry: COc1cccc(OCC(O)CN2CCN(c3ccccc3)CC2)c1 (centres undefined)
Reply: inactive

###

Test system: SW-620 colon
Test: NCI-60 one-dose screen, 48 h
Details: 10 µM unless noted
Description: Growth inhibition of the SW-620 human tumor cell line is measured as a screen for anti-cancer activity. Cells are grown in 96 well plates and exposed to the test compound for 48 hours. Compounds are tested at a single concentration, which is 10^-5 M for most compounds. The reported endpoint is percent growth (GI% or GIPRCNT), where numbers from 0 - 100% represent growth inhibition, and numbers from -100% - 0 represent cell death. For example, a value of 40 represents 60% growth inhibition. […]
Compounds without any hit were thinned out: in the full panel of roughly 83,000, 20% have a hit. Activity calls are given as the source filed them. The calls were made as follows: active = growth percent below 10; inactive = the rest.
Select the matching outcome among active, inactive

Worked examples, 6 compounds total:
>>> df
                                   compound  assigned_label
0  O=c1cc(N2CCOCC2)oc2c(-c3ccc4c(c3)OCCO4)csc12        inactive
1  Nc1c(C(=O)c2ccc(Br)cc2)sc2nc3c(cc12)CCCC3        inactive
2  O=C(/C=C/c1cccc([N+](=O)[O-])c1)c1ccc(Nc2nc(N3CCCCC3)nc(N3CCCCC3)n2)cc1        inactive
3     CCN(CC)c1ccc(C(=N)c2ccc(N(C)C)cc2)cc1          active
4  COc1ccc(-c2nn(-c3cccc(Cl)c3)cc2/C=C2\C(=N)N(c3ccccc3)N=C2N)cc1        inactive
5  CC(CN1CCN(CCOCCO)CC1)CN1c2ccccc2Sc2ccc(Cl)cc21 (stereo not given)        inactive

Ask: Write down the call the test reported for this compound. Item: COc1cc(OC)cc(-c2n/c(=C\c3c(O)[nH]c4ccc(Cl)cc34)cc3c2=Nc2ccccc2-3)c1
Reply: active

Ask: Follow-up entry: COc1cc(Cn2c(-c3ccccc3)cc3c2-c2oncc2CC3)cc(OC)c1OC
Reply: inactive

Ask: Would you mind doing Cc1cc(C#Cc2ccccc2)ccc1-n1c(/C=C/c2ccc(F)cc2)nc2ccccc2c1=O as well?
Reply: inactive

Ask: Another compound: CC(C)CC(NC(=O)OCC1c2ccccc2-c2ccccc21)C(=O)O (stereo not given)
Reply: inactive
